Target: pT7_6His-AlfaTag-ZIF268 (human, UniProt P18146 335-423)
Assay: PADIT-seq
Conditions: dsDNA, one strand shown
Below, each entry is listed with its recorded binding signal.

seq-string: CTCGAGGATATCAAGATCTGGCCTCGGCGGTTGGGCGGGAACCTCTAGCTAGCCGACTCACTATAGGGATAATCGCCCTGAGCAAAGACC
target-or-test-system: pT7_6His-AlfaTag-ZIF268 (human, UniProt P18146 335-423)
binding signal [log2FC]: 0.0831
--
seq-string: CTCGAGGATATCAAGATCTGGCCTCGGCTTGCCACGCGGAACCTCTAGCTAGCCGACTCACTATAGGGATAATCGCCCTGAGCAAAGACC
target-or-test-system: pT7_6His-AlfaTag-ZIF268 (human, UniProt P18146 335-423)
binding signal [log2FC]: 0.107
--
seq-string: CTCGAGGATATCAAGATCTGGCCTCGGCCACCCACGCGGAACCTCTAGCTAGCCGACTCACTATAGGGATAATCGCCCTGAGCAAAGACC
target-or-test-system: pT7_6His-AlfaTag-ZIF268 (human, UniProt P18146 335-423)
binding signal [log2FC]: 2.1
--
seq-string: CTCGAGGATATCAAGATCTGGCCTCGGCATTTTAATAGGAACCTCTAGCTAGCCGACTCACTATAGGGATAATCGCCCTGAGCAAAGACC
target-or-test-system: pT7_6His-AlfaTag-ZIF268 (human, UniProt P18146 335-423)
binding signal [log2FC]: 0.0148
--
seq-string: CTCGAGGATATCAAGATCTGGCCTCGGCCGCCCAAACGGAACCTCTAGCTAGCCGACTCACTATAGGGATAATCGCCCTGAGCAAAGACC
target-or-test-system: pT7_6His-AlfaTag-ZIF268 (human, UniProt P18146 335-423)
binding signal [log2FC]: 0.0706
--
seq-string: CTCGAGGATATCAAGATCTGGCCTCGGCGCGTGGGCCGGAACCTCTAGCTAGCCGACTCACTATAGGGATAATCGCCCTGAGCAAAGACC
target-or-test-system: pT7_6His-AlfaTag-ZIF268 (human, UniProt P18146 335-423)
binding signal [log2FC]: 2.26
--
seq-string: CTCGAGGATATCAAGATCTGGCCTCGGCGCGTGGTATGGAACCTCTAGCTAGCCGACTCACTATAGGGATAATCGCCCTGAGCAAAGACC
target-or-test-system: pT7_6His-AlfaTag-ZIF268 (human, UniProt P18146 335-423)
binding signal [log2FC]: 0.45
